- system: T1, human monomeric EGFR (EGFR.mmh) (human, UniProt P00533 25-647)
- T1 construct: Soluble monomeric EGFR construct
- test.name: SPR 37C, mAb captured by anti-human Fc, EGFR.mmh analyte
We begin with a simple list: items and their reported Kd.
outcome.measure: Kd

* H1H102N (antibody, human IgG1, V domains shown, Tested in human IgG1 Fc format (H1H); also called H1M102N) VH: QVQLQESGPGLVQPSQTLSLTCTVSGGSVSSGDYYWSWIRQHPGKGLEWIGHIYYSGITYYNPSLESRVTITLDTSKNQFSLNLRSVTAADTAVHYCARTAIIGTMDNWGRGTLVTVSS VL: EIVMTQSPATLSVSPGERATLSCRASQSVSSNLAWYQQKPGQAPRLLIYDASTRATGFPARFSGSGSGTEFTLTISSLQSEDFAVYYCQQYNTWWTFGQGTKVEIK | 5.67 nM
* H1H171P (antibody, human IgG1, V domains shown, Human IgG1 Fc (H1H)) VH: QVQLVESGGGVVQPGRSLRLSCAASGFTFSIYGMNWVRQGPGKGLDWVAVISDDGSNKDYVDSVRGRFTISRDNSKNTLYLQMNSLSAEDTAVYYCAKDRITGTHYYGMDVWGQGTTVTVSS VL: DIQMTQSPSSLSASVGDRITITCRASQDIANYLAWFQQKPGNAPTSLIYAASILQSGVPSKFSGSGSGTDFTLTITSLQPEDFASYYCQQYNRKPWTFGRGTKVEIK | 14.2 nM
* H1H144P (antibody, human IgG1, V domains shown, Human IgG1 Fc (H1H)) VH: QVQLQESGPGLVMPSQTLSLTCTVSGGSINSGDYYWNWIRQHPGKGLEWIGYIYYSEISYHNPSLKSRVTTSIDTSTNQFSLKLSSVTAADTAVYYCARDRVELRAFDIWGQGTMVTVSS VL: DIQMTQSPSSLSASVGDRVTITCQASQDISNYLNWYQQKPGKAPKLLIYDASNLETGVPSRFSGSGSGTDFTFTISSLQPEDIATYYCQHYDSLPLTFGQGTRLEIK | 5.25 nM
